Items are presented alongside their recorded STK11 functional score.
B1: library; numbered along this chain (parent)
chain: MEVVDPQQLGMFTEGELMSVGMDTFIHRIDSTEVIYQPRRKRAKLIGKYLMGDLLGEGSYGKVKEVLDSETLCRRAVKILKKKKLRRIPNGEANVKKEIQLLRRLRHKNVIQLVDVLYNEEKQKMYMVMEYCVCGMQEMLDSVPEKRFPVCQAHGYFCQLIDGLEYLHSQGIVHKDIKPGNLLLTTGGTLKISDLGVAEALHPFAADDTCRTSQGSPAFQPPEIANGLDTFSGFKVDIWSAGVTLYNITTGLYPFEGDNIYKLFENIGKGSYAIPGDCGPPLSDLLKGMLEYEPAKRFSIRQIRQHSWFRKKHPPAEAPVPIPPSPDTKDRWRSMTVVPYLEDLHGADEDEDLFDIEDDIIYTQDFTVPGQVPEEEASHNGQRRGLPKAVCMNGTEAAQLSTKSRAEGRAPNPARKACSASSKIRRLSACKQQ

- Variants of: B1
- protocol.summary: STK11 functional score (HeLa growth suppression), rescaled enrichment; synonymous median = 1, nonsense median = 0 (normalised score)
- condition.description: with HeLa; variant type: missense
Lab note: write the figure by itself, no unit.

Example entries begin here.
For the variant `A93V` , give its reported STK11 functional score.
0.101

Tell me its STK11 functional score given `D358L` as the entry.
1.56

Quote STK11 functional score reported for `D359R` please.
1.52

Look up and report measured STK11 functional score for this entry: `W308A`
0.0826

Output STK11 functional score of `A76I`
1.4

New cases:
State its STK11 functional score: `P294G`
0.877

Please list STK11 functional score recorded for the variant `R87A`
0.186

Tell me measured STK11 functional score for `T32I` please.
0.842

Answer with the recorded STK11 functional score for the variant listed here: `S422K`
1.53

Tell me its STK11 functional score given `N412M` as the entry.
0.405

Note down STK11 functional score recorded for `Q170T`
0.156

Write down STK11 functional score measured for item `D330M`
1.58

Give the reported value of STK11 functional score for this record: `C73L`
1.19
